Taken from a polymer gas permeability compilation.

readout: CH4 permeability (Barrer)

[[record]]
molecule = "*Oc1ccc(-c2ccc(Oc3c(F)c(F)c(COC(C4CCCC(C(OCc5c(F)c(F)c(*)c(F)c5F)(C(F)(F)F)C(F)(F)F)C4)(C(F)(F)F)C(F)(F)F)c(F)c3F)cc2)cc1 (repeat unit)"
readout = "CH4 permeability"
assay_value = 0.34

[[record]]
molecule = "*/C=C/C1CC(*)CC1[Si](C)(C)C (repeat unit)"
readout = "CH4 permeability"
assay_value = 17


A. *Oc1ccc(C(C)(C)c2ccc(Oc3ccc(S(=O)(=O)c4ccc(*)cc4)cc3)cc2)cc1 (repeat unit)
B. *c1ccc(Oc2ccc(C(c3ccc(Oc4ccc(N5C(=O)c6ccc(C(c7ccc8c(c7)C(=O)N(*)C8=O)(C(F)(F)F)C(F)(F)F)cc6C5=O)cc4)cc3)(C(F)(F)F)C(F)(F)F)cc2)cc1 (repeat unit)
C. *CC(*)c1ccc([Si](C)(C)CCCC(F)(F)F)cc1 (repeat unit)
D. *c1c(C)c(C)c(N2C(=O)c3ccc(Oc4cc(C(C)(C)C)cc(C)c4Oc4ccc5c(c4)C(=O)N(*)C5=O)cc3C2=O)c(C)c1C (repeat unit)
Query block: Ranking field: CH4 permeability; order: falling. Kindly provide the labels arranged according to the requested ordering.
Result block: C, D, B, A
